Data origin, for the record: the supplement of paper PMC4862054

Test system: CAL-148
protocolNotes: normalised response (% of control), CellTiter-Glo; higher = more viable cells (100 = DMSO, 0 = benzethonium chloride kill control)
testSettings: incubation time: 72 h
metric: normalised response (%)

{"molecule": "Cc1ccc(C(=O)Nc2ccc(CN3CCN(C)CC3)c(C(F)(F)F)c2)cc1C#Cc1cnc2cccnn12 [Ponatinib] (0.1 nM)", "experimentalSystem": "CAL-148", "quantityUnit": "%", "observedValue": 105}
{"molecule": "O=C(O)c1ccc(-c2c[nH]c3ncc(-c4ccccc4)cc23)cc1C1CCCC1 (10 nM)", "experimentalSystem": "CAL-148", "quantityUnit": "%", "observedValue": 90.4}
{"molecule": "C[C@@H](Oc1cc(-c2cnn(C3CCNCC3)c2)cnc1N)c1c(Cl)ccc(F)c1Cl [Crizotinib] (1 nM)", "experimentalSystem": "CAL-148", "quantityUnit": "%", "observedValue": 91.3}
